Assay: Tissue distribution of SHR9146 in mice after oral gavage of 40 mg/kg
Format: in vivo, ICR mice
Settings: male, ICR, mouse, skin, po, 40 mg/kg, male, 1 h, 40 mg/kg oral gavage, Mean (n=3); read-out: SHR9146 concentration in Skin
Quantity Name: concentration at 1 h (ng/g)
Entry rule: numbers only, all in ng/g.

INPUT: // concentration at 1 h lookup, key: OCCn1cc(-c2ccc(N3CCC([C@H]4c5c(F)cccc5-c5cncn54)CC3)cc2)cn1
OUTPUT: 7210

====

Test: Tissue distribution of SHR9146 in mice after oral gavage of 40 mg/kg
Type: in vivo, ICR mice
Conditions: male, ICR, mouse, small intestine, po, 40 mg/kg, male, 1 h, 40 mg/kg oral gavage, Mean (n=3); read-out: SHR9146 concentration in Small intestine
Quantity Name: concentration at 1 h (ng/g)
Entry rule: numbers only, all in ng/g.

INPUT: // concentration at 1 h lookup, key: OCCn1cc(-c2ccc(N3CCC([C@H]4c5c(F)cccc5-c5cncn54)CC3)cc2)cn1
OUTPUT: 22700

====

Assay: Plasma pharmacokinetics of SHR9146 in mice (LC-MS/MS, non-compartmental analysis)
Assay type: in vivo, ICR mice
Conditions: both sexes, ICR, mouse, plasma, oral, 20 mg/kg, 20 mg/kg i.g. single; 6 h; read-out: plasma drug concentration, individual mice #1-#6
Quantity Name: concentration at 6 h (ng/mL)
Entry rule: numbers only, all in ng/mL.

INPUT: // concentration at 6 h lookup, key: OCCn1cc(-c2ccc(N3CCC([C@H]4c5c(F)cccc5-c5cncn54)CC3)cc2)cn1 [SHR9146]
OUTPUT: 242

====

Assay: Plasma pharmacokinetics of SHR9146 in mice (LC-MS/MS, non-compartmental analysis)
Type: in vivo, ICR mice
Details: both sexes, ICR, mouse, plasma, po, 40 mg/kg, 40 mg/kg i.g. single dose vs 5 mg/kg i.v.; mice; one value for the dose; read-out: F (absolute bioavailability)
Quantity Name: bioavailability (%)
Entry rule: numbers only, all in %.

INPUT: // bioavailability lookup, key: OCCn1cc(-c2ccc(N3CCC([C@H]4c5c(F)cccc5-c5cncn54)CC3)cc2)cn1
OUTPUT: 40.2

====

Experiment: Tissue distribution of SHR9146 in mice after oral gavage of 40 mg/kg
Assay type: in vivo, ICR mice
Conditions: male, ICR, mouse, thyroid gland, po, 40 mg/kg, male, 1 h, 40 mg/kg oral gavage, individual mice; read-out: SHR9146 concentration in thyroid gland
Quantity Name: concentration at 1 h (ng/g)
Entry rule: numbers only, all in ng/g.

INPUT: // concentration at 1 h lookup, key: OCCn1cc(-c2ccc(N3CCC([C@H]4c5c(F)cccc5-c5cncn54)CC3)cc2)cn1
OUTPUT: 7250

====

Test: Plasma pharmacokinetics of SHR9146 in mice (LC-MS/MS, non-compartmental analysis)
Type: in vivo, ICR mice
Details: male, ICR, mouse, plasma, po, 40 mg/kg, 40 mg/kg i.g. single dose; male mice; plasma; read-out: Cmax
Quantity Name: Cmax (ng/mL)
Entry rule: numbers only, all in ng/mL.

INPUT: // Cmax lookup, key: OCCn1cc(-c2ccc(N3CCC([C@H]4c5c(F)cccc5-c5cncn54)CC3)cc2)cn1
OUTPUT: 15000

====

Test: Tissue distribution of SHR9146 in mice after oral gavage of 40 mg/kg
Type: in vivo, ICR mice
Conditions: male, ICR, mouse, skin, po, 40 mg/kg, male, 24 h, 40 mg/kg oral gavage, Mean (n=3); read-out: SHR9146 concentration in Skin
Quantity Name: concentration at 24 h
For clarity, give the value followed by its unit.

INPUT: // concentration at 24 h lookup, key: OCCn1cc(-c2ccc(N3CCC([C@H]4c5c(F)cccc5-c5cncn54)CC3)cc2)cn1 [SHR9146]
OUTPUT: 21 ng/g

====

Assay: Plasma pharmacokinetics of SHR9146 in mice (LC-MS/MS, non-compartmental analysis)
Type: in vivo, ICR mice
Details: ICR, mouse, iv; 5 mg/kg i.v. single dose; male mice; plasma; read-out: Vd
Quantity Name: Vd
For clarity, give the value followed by its unit.

INPUT: // Vd lookup, key: OCCn1cc(-c2ccc(N3CCC([C@H]4c5c(F)cccc5-c5cncn54)CC3)cc2)cn1
OUTPUT: 0.694 L/kg

====

Assay: Plasma pharmacokinetics of SHR9146 in mice (LC-MS/MS, non-compartmental analysis)
Type: in vivo, ICR mice
Details: both sexes, ICR, mouse, plasma, po, 80 mg/kg, 80 mg/kg i.g. single dose; all mice (Totol, 3 male + 3 female); plasma; read-out: t1/2 (converted)
Quantity Name: half-life (h)
Entry rule: numbers only, all in h.

INPUT: // half-life lookup, key: OCCn1cc(-c2ccc(N3CCC([C@H]4c5c(F)cccc5-c5cncn54)CC3)cc2)cn1
OUTPUT: 2.4

====

Experiment: Tissue distribution of SHR9146 in mice after oral gavage of 40 mg/kg
Format: in vivo, ICR mice
Conditions: male, ICR, mouse, kidney, po, 40 mg/kg, male, 24 h, 40 mg/kg oral gavage, Mean (n=3); read-out: SHR9146 concentration in Kidney
Quantity Name: concentration at 24 h (ng/g)
Entry rule: numbers only, all in ng/g.

INPUT: // concentration at 24 h lookup, key: OCCn1cc(-c2ccc(N3CCC([C@H]4c5c(F)cccc5-c5cncn54)CC3)cc2)cn1 [SHR9146]
OUTPUT: 18

====

Test: Tissue distribution of SHR9146 in mice after oral gavage of 40 mg/kg
Format: in vivo, ICR mice
Settings: male, ICR, mouse, plasma, po, 40 mg/kg, male, 1 h, 40 mg/kg oral gavage, individual mice; read-out: SHR9146 concentration in Plasma
Quantity Name: concentration at 1 h (ng/mL)
Entry rule: numbers only, all in ng/mL.

INPUT: // concentration at 1 h lookup, key: OCCn1cc(-c2ccc(N3CCC([C@H]4c5c(F)cccc5-c5cncn54)CC3)cc2)cn1 [SHR9146]
OUTPUT: 10100

====

Assay: Tissue distribution of SHR9146 in mice after oral gavage of 40 mg/kg
Format: in vivo, ICR mice
Details: male, ICR, mouse, skeletal muscle, po, 40 mg/kg, male, 1 h, 40 mg/kg oral gavage, Mean (n=3); read-out: SHR9146 concentration in Skeletal muscle
Experimental: ICR mice with body weight 16–26 g were supplied by Shanghai Lingchang Biotechnology Co., Ltd. (animal breeding license number SCXK (Shanghai) 2013-0018) and housed at Shanghai Institute of Materia Medica, Chinese Academy of Sciences [animal use license number SYXK (Shanghai) 2015-0027]. The mice used in this study were fasted overnight for 12 h but had free access to water. Food was supplied 4 h post-dose. […]
Quantity Name: concentration at 1 h (ng/g)
Entry rule: numbers only, all in ng/g.

INPUT: // concentration at 1 h lookup, key: OCCn1cc(-c2ccc(N3CCC([C@H]4c5c(F)cccc5-c5cncn54)CC3)cc2)cn1
OUTPUT: 5600

====

Test: Plasma pharmacokinetics of SHR9146 in mice (LC-MS/MS, non-compartmental analysis)
Type: in vivo, ICR mice
Settings: male, ICR, mouse, plasma, po, 20 mg/kg, 20 mg/kg i.g. single dose; male mice; plasma; read-out: Tmax
Quantity Name: Tmax
For clarity, give the value followed by its unit.

INPUT: // Tmax lookup, key: OCCn1cc(-c2ccc(N3CCC([C@H]4c5c(F)cccc5-c5cncn54)CC3)cc2)cn1 [SHR9146]
OUTPUT: 25 min

====

Assay: Plasma pharmacokinetics of SHR9146 in mice (LC-MS/MS, non-compartmental analysis)
Assay type: in vivo, ICR mice
Conditions: both sexes, ICR, mouse, po; 20 mg/kg i.g. single dose; all mice (Totol, 3 male + 3 female); plasma; read-out: MRT0-∞
Quantity Name: MRT inf (h)
Entry rule: numbers only, all in h.

INPUT: // MRT inf lookup, key: OCCn1cc(-c2ccc(N3CCC([C@H]4c5c(F)cccc5-c5cncn54)CC3)cc2)cn1
OUTPUT: 1.64

====

Test: Tissue distribution of SHR9146 in mice after oral gavage of 40 mg/kg
Format: in vivo, ICR mice
Conditions: female, ICR, mouse, small intestine, po, 40 mg/kg, female, 6 h, 40 mg/kg oral gavage, Mean (n=3); read-out: SHR9146 concentration in Small intestine
Procedure: ICR mice with body weight 16–26 g were supplied by Shanghai Lingchang Biotechnology Co., Ltd. (animal breeding license number SCXK (Shanghai) 2013-0018) and housed at Shanghai Institute of Materia Medica, Chinese Academy of Sciences [animal use license number SYXK (Shanghai) 2015-0027]. The mice used in this study were fasted overnight for 12 h but had free access to water. Food was supplied 4 h post-dose. […]
Quantity Name: concentration at 6 h

INPUT: // concentration at 6 h lookup, key: OCCn1cc(-c2ccc(N3CCC([C@H]4c5c(F)cccc5-c5cncn54)CC3)cc2)cn1
OUTPUT: 832 ng/g

Where do these numbers come from? They come from paper PMC10410440.
